Please go through the items and note down their Luminescence Raw1.
Test system: l(2)mbn cells
EXPERIMENTAL PROTOCOL: cytotoxicity in Drosophila l(2)mbn cells
Assay type: cell-based
CONDITION SET: 0.04 µM, replicate 1
When you answer, write just the number.

I have this compound here, C=C1CC[C@H]2[C@]3(C)C[C@H](C=C(C)C)O[C@H]3CC[C@]2(C)[C@@H]1Cc1c(OC)oc(CO)c(C)c1=O [Compound 18] , and I need its recorded Luminescence Raw1. 2968023

I have this compound here, C=C1CCC2C(C)(CC(=O)C=C(C)C)C(O)CCC2(C)C1Cc1c(OC)oc(CO)c(C)c1=O (stereo not drawn) [Compound 19] , and I need its recorded Luminescence Raw1. 3944169

I have this compound here, C=C1CCC2C(C)(CC(=O)C=C(C)C)C(O)CCC2(C)C1Cc1c(OC)oc(C)c(C)c1=O (stereo not drawn) [Compound 25] , and I need its recorded Luminescence Raw1. 3193720

I have this compound here, C=C1CC[C@H]2[C@]3(C)C[C@H](C=C(C)C)O[C@H]3CC[C@]2(C)[C@@H]1Cc1c(O)c(C)c(C)oc1=O [Compound 6, subglutinol B] , and I need its recorded Luminescence Raw1. 3229071

I have this compound here, C=C1CCC2C(C)(CCC=C(C)C)C(O)CCC2(C)C1Cc1c(OC)oc(CO)c(C(=O)OC)c1=O (stereo not drawn) [Compound 13] , and I need its recorded Luminescence Raw1. 3699578

I have this compound here, C=C1CCC2C3(C)CC(C=C(C)C)OC3CCC2(C)C1Cc1c(OC)oc(C)c(C)c1=O (stereo not drawn) [Compound 23] , and I need its recorded Luminescence Raw1. 3121216

I have this compound here, C=C1CCC2C(C)(CC(=O)C=C(C)C)C(O)CCC2(C)C1Cc1c(O)c(C)c(C)oc1=O (stereo not drawn) [Compound 7] , and I need its recorded Luminescence Raw1. 3452362

I have this compound here, C=C1CC[C@@H]2[C@](C)(CC[C@H]3O[C@H](C=C(C)C)C[C@@]23C)[C@@H]1Cc1c(O)c(C)c(C)oc1=O [Compound 10, higginsianin A] , and I need its recorded Luminescence Raw1. 2899849

I have this compound here, C=C1CC[C@H]2[C@]3(C)C[C@H](C=C(C)C)O[C@H]3CC[C@]2(C)[C@@H]1Cc1c(OC)oc(C)c(C)c1=O [Compound 24] , and I need its recorded Luminescence Raw1. 3470038

Values compiled from paper PMC7156458.
